Molecular target: HDAC6 enzyme (Homo sapiens, UniProt Q9UBN7)
Construct: HDAC6 enzyme prepared by transducing full length HDAC6 gene into Sf-9 insect cells; GST; purchased SignalChem; host or cells: Sf-9 insect cells
Assay: HDAC6 enzyme inhibitory assay (HDAC-Glo I/II Assay kit)
Format: biochemical
Details: wells without enzyme = 100% inhibition, read-out: HDAC6 inhibitory rate (%) (10 μM)
measured.metric: inhibition at 10 µM (%)
# value in %; strip the unit string

// known answers, use as guide
O=C1c2cc(-c3nnc(C(F)F)o3)ccc2CN1[C@H](c1cccc(F)c1)[C@@H](O)c1ccccc1 (racemic)    100
O=C1c2cc(-c3nnc(C(F)F)o3)ccc2CN1[C@H](C1CCOCC1)[C@@H](O)c1cccc(C(F)(F)F)c1 (racemic)    101
O=C1c2cc(-c3nnc(C(F)F)o3)ccc2CN1[C@H](c1ccccn1)[C@@H](O)c1cccc(C(F)(F)F)n1 (single isomer, unassigned)    101
O=C1c2cc(-c3nnc(C(F)F)o3)ccc2CN1[C@H](C1CC1)[C@@H](O)c1cccc(F)c1    100
O=C1c2cc(-c3nnc(C(F)F)o3)ccc2CN1[C@H](c1cnccn1)[C@@H](O)c1ccc(Cl)cc1 (single isomer, unassigned)    100

q: Look at this compound and give its reported inhibition at 10 µM. O=C1c2cc(-c3nnc(C(F)F)o3)ccc2CN1[C@H](c1ncccn1)[C@@H](O)c1ccc(Cl)cc1 (racemic)
a: 100

----------
Target: HDAC6 enzyme (Homo sapiens)
Construct: HDAC6 enzyme prepared by transducing full length HDAC6 gene into Sf-9 insect cells; GST; purchased SignalChem; host or cells: Sf-9 insect cells
Sequence (Q9UBN7 1-1215): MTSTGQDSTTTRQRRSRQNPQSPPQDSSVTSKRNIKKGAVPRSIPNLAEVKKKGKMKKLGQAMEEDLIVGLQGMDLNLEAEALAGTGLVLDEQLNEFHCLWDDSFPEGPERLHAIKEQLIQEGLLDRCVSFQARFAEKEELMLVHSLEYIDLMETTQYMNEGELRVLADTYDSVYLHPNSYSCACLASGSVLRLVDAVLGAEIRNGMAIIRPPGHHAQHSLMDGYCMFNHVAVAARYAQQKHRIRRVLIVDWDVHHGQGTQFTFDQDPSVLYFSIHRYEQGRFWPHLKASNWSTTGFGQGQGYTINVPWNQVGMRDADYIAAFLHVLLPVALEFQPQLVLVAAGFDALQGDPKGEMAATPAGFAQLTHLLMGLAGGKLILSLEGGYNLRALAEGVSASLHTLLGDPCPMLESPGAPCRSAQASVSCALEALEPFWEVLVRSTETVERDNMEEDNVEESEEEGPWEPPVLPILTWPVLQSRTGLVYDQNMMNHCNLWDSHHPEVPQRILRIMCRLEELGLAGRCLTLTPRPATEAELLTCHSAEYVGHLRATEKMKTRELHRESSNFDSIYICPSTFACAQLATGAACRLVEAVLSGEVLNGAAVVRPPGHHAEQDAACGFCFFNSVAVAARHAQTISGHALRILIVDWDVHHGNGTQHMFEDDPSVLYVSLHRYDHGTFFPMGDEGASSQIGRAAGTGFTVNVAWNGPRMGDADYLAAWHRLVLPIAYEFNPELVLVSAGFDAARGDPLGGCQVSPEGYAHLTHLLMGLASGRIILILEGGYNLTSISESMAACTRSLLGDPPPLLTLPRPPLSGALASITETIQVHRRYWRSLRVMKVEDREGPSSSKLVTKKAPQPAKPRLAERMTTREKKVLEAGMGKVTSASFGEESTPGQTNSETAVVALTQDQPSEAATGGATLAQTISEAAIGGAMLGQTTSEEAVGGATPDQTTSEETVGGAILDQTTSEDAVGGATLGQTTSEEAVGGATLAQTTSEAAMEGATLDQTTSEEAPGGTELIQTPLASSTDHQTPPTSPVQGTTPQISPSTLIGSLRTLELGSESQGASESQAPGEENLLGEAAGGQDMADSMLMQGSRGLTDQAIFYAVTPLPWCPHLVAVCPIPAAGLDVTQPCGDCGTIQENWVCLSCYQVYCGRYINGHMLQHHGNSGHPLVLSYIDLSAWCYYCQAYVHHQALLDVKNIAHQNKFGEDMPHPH
Assay: HDAC6 enzyme inhibitory assay (HDAC-Glo I/II Assay kit)
Assay type: biochemical
Conditions: wells without enzyme = 100% inhibition, read-out: HDAC6 inhibitory rate (%) (10 μM)
measured.metric: inhibition at 10 µM (%)
# value in %; strip the unit string

// known answers, use as guide
O=C1c2cc(-c3nnc(C(F)F)o3)ccc2CN1[C@H](c1ccccc1)[C@@H](O)c1ccc(F)cc1 (racemic) [Example 22]    99
O=C1c2cc(-c3nnc(C(F)F)o3)ccc2CN1[C@H](c1ccccc1)[C@@H](O)c1cccc(F)c1 (racemic) [Example 23]    100
O=C1c2cc(-c3nnc(C(F)F)o3)ccc2CN1[C@H](c1ncccn1)[C@@H](O)c1ccc(F)cc1 (racemic) [Example 134]    101
O=C1c2cc(-c3nnc(C(F)F)o3)ccc2CN1[C@H](c1ccc(F)cc1)[C@@H](O)c1ccccc1F (racemic) [Example 29]    99
O=C1c2cc(-c3nnc(C(F)F)o3)ccc2CN1[C@H](c1ccc(F)cc1)[C@@H](O)c1ccc(C(F)(F)F)nc1 (relative stereo) [Example 55]    98
O=C1c2cc(-c3nnc(C(F)F)o3)ccc2CN1[C@H](c1cnccn1)[C@@H](O)c1ccc(F)c(F)c1 (single isomer, unassigned) [Example 85]    100
O=C1c2cc(-c3nnc(C(F)F)o3)ccc2CN1[C@H](c1ccccc1F)[C@@H](O)c1ccc(F)cc1 (racemic) [Example 28]    99
O=C1c2cc(-c3nnc(C(F)F)o3)ccc2CN1[C@H](C1CCC(F)(F)CC1)[C@@H](O)c1ccccn1 (racemic) [Example 81]    100
O=C1c2cc(-c3nnc(C(F)F)o3)ccc2CN1[C@H](c1ccc(F)cc1F)[C@@H](O)c1ccccn1 (racemic) [Example 31]    97
O=C1c2cc(-c3nnc(C(F)F)o3)ccc2CN1[C@H](c1cc(F)c(F)c(F)c1)[C@@H](O)c1ccccn1 (racemic) [Example 15]    99

q: Look at this compound and give its reported inhibition at 10 µM. O=C1c2cc(-c3nnc(C(F)F)o3)ccc2CN1[C@H](C1CCOCC1)[C@@H](O)c1cccc(F)c1 [Example 64]
a: 100

q: Okay, and CCOc1ccc([C@H](O)[C@@H](c2ccccc2)N2Cc3ccc(-c4nnc(C(F)F)o4)cc3C2=O)cn1 (racemic) [Example 44] ?
a: 100

q: Okay, and O=C1c2cc(-c3nnc(C(F)F)o3)ccc2CN1[C@H](c1ccccc1F)[C@@H](O)c1ccccc1 (racemic) [Example 27] ?
a: 101

Ref: patent US12384770B2
